Kindly state gcPBM binding intensity (ln) for each of the entries shown.
# Test system: PfAP2-I AP2 domain 3 (GST-tagged)
# test protocol: gcPBM binding intensity (ln(normalized median fluorescence intensity)); higher = stronger DNA binding
Whole data set: some 25,000 sequences, median “ln(normalized median fluorescence intensity)” near 7.9, cut for the highest 2% near 11. This is one part of a sample in which the highest values are shown more often than they occur.
Numbers only.

Some sequences with recorded gcPBM binding intensity (ln):
INSERT INTO measurements (macromolecule_sequence, endpoint_name, val) VALUES
  ('AAAAAAAAAAAAAAAAAAAGAAAAGAAAATAGGGTT [GTGCAC_negctrl_site421]', 'gcPBM binding intensity (ln)', 8.96),
  ('ACCATATAATTTTTTTGTACATAATGATTTTTTTTT [XGTACX_site1104]', 'gcPBM binding intensity (ln)', 7.99),
  ('CACTAAAAGAAACACACACACACACCCATATATATA [CACACA_site4151]', 'gcPBM binding intensity (ln)', 8.44),
  ('AAAGCACCCAGGCACACACACAAAGGAAAAGAAAAA [CACACA_site232]', 'gcPBM binding intensity (ln)', 7.95),
  ('CCGATATAATGGAAAACACACAAAAGATATATATAT [CACACA_site2683]', 'gcPBM binding intensity (ln)', 9.01);

Items follow; give gcPBM binding intensity (ln) for each.
1. AATGCACTATTTAAAAGTACACATAAGAAAAGCATA [XGTACX_site1739]
2. AAAGCACCCATGCACACACACAAAGGAAAAGAAAAA [CACACA_site6249]

1: 9.24; 2: 8.32

Items follow; give gcPBM binding intensity (ln) for each.
1. TATAAATATCTGAATTGTACAGGTGAAAAAAAAAAT [XGTACX_site1867]
2. AAAGAAGGGAAACACACACACACACCCACAAAAAAA [CACACA_site3766]

1: 8.04; 2: 8.17

* * *

Kindly state gcPBM binding intensity (ln) for each of the entries shown.
# System: PfAP2-I AP2 domain 3 (GST-tagged)
# test protocol: gcPBM binding intensity (ln(normalized median fluorescence intensity)); higher = stronger DNA binding
Over roughly 25,000 sequences, “ln(normalized median fluorescence intensity)” has its median near 7.9; the highest 2% begin near 11. The list comes from a sample in which the highest values are over-represented; it also holds close analogues and randomly drawn sequences.

INSERT INTO results (macromolecule_sequence, val) VALUES
  ('AATATAAGGATATATACACACATAAATACATACATA [CACACA_site7859]', 7.67),
  ('TTCCAAGAAATAATAGTGCATTATTCATTTTAATAA', 11.5),
  ('TGTTTTTTTATTTTCACACATAATCCAATTATACAT [CACACA_site6070]', 8.22);

Items follow; give gcPBM binding intensity (ln) for each.
1. ATGTAGAAGTAATGCACACATATGTATATATATATA [CACACA_site2494]
2. AAAAATGTATGTATGGTGCAGTATTCATATCATTTT [GTGCAC_site9458]
3. GCAAGGTCCACACTGGTGCATTAAAAATAAAATATA [GTGCAC_site9956]
4. ACATAATTATTATGCACACATATTTTTATGTATTTA [CACACA_site698]
5. TTTTTAATCAGAAATATTTATTAAAGAATTTTATAG [GTGCAC_negctrl_site725]
6. ATATATAATTCCCAAGTGCATTTATTTTAATTATTA
7. GTATATTTTATTTTATGTACATATTCATTTTTTATT [XGTACX_site561]
8. AAAATATAATATAATGCACACATAAAAAAAAAAAAA [CACACA_site7989]

10.9
10.9
11.6
10.3
7.32
10.2
8.3
11.1

Items follow; give gcPBM binding intensity (ln) for each.
1. AAGGGTTATAAAAATTGTACTTTTTTTATTTTTTTT [XGTACX_site1313]
2. AGAGATACATAAAAAAGTACATATAAAATTTAGGAA [XGTACX_site7201]
3. TATATATATATATTCACACATAAAAATAAAATAAAA [CACACA_site4774]
4. TATAACATTTTTTTCAAAATAGCTTTAGAAATAAAG [CACACA_negctrl_site718]
5. AATATAATATAATGCACACATAAAAAAAAAAAAAAA [CACACA_site304]
6. ATGTAGAAGTAATGCACACATATGTATTTATATATA [CACACA_site5391]

1: 7.72; 2: 7.96; 3: 9.2; 4: 7.37; 5: 11.1; 6: 10.9

Items follow; give gcPBM binding intensity (ln) for each.
1. TATGTGTGCAAAAACTGTACACATTAAAGGTATATA [XGTACX_site7627]
2. CATATAAAAAATATGGTGCAGTTTTTTTTTTTTTTT
3. TATACATATGTATGCACACATACATACACATAGAAT [CACACA_site3480]

1: 9.32; 2: 10.2; 3: 8.8
